Test system: Klebsiella pneumoniae 7484kpn-631 (IMP, ESBLs)
assayDetails: In vitro antibacterial activity on clinically separated CRE strain, agar dilution MIC
Format: cell-based
testSettings: Table 3, 7484kpn-631 Klebsiella pneumoniae
From the text: Experimental strains: all experimental standard bacterial strains for enzyme production were purchased from ATCC, and the clinically separated CRE strain was purchased from Southwest Hospital of the Third Military Medical University. Experimental Method: Agar dilution method, referring to M100-S23: Performance Standards for Antimicrobial Susceptibility Testing: Twenty-Third Informational Supplement (Clinical And Laboratory Standards Institute, 2013). […]
Counter-ions that a name gives are not always drawn.
quantityMeasured: MIC (µg/mL)
Give the value in µg/mL but do not write µg/mL after it.

compound: O=C(NC1CC2(CNC2)C1)[C@@H]1CC[C@@H]2CN1C(=O)N2OS(=O)(=O)O [Compound 2]
assaySystem: Klebsiella pneumoniae 7484kpn-631 (IMP, ESBLs)
scaleUnit: µg/mL
testResult: 2

Now, please, on to the next compound.
// map CN1CC2(CC(NC(=O)[C@@H]3CC[C@@H]4CN3C(=O)N4OS(=O)(=O)O)C2)C1 [Compound 6, hydrogen sulfate] to recorded MIC (system: Klebsiella pneumoniae 7484kpn-631 (IMP, ESBLs)) 4

---

Tested on: Enterobacter hormaechei BAA-2082 (KPC)
assayDetails: In vitro antibacterial activity, agar dilution MIC
Format: cell-based
testSettings: BAA2082; Table 2; BAA-2082 Enterobacter hormaechei, KPC; read-out: MIC
Excerpt: Experimental strains: all experimental standard bacterial strains for enzyme production were purchased from ATCC, and the clinically separated CRE strain was purchased from Southwest Hospital of the Third Military Medical University. Experimental Method: Agar dilution method, referring to M100-S23: Performance Standards for Antimicrobial Susceptibility Testing: Twenty-Third Informational Supplement (Clinical And Laboratory Standards Institute, 2013). […]
Where a name gives a salt, the structure may show the parent alone.
Entries annotated with measured MIC
Give the value in mg/L but do not write mg/L after it.

compound: CN1CC2(CC(NC(=O)[C@@H]3CC[C@@H]4CN3C(=O)N4OS(=O)(=O)O)C2)C1 [Compound 6, hydrogen sulfate]
scaleUnit: mg/L
MIC: 2

Now, please, on to the next compound.
// map O=C(NC1CC2(CNC2)C1)[C@@H]1CC[C@@H]2CN1C(=O)N2OS(=O)(=O)O [Compound 2] to recorded MIC (system: Enterobacter hormaechei BAA-2082 (KPC)) 2

---

Entries annotated with measured MIC
Test system: Escherichia coli BAA-2452 (NDM-1)
assayDetails: In vitro antibacterial activity, agar dilution MIC
Format: cell-based
testSettings: BAA2452, Table 2, BAA-2452 Escherichia coli, NDM-1, read-out: MIC
Counter-ions that a name gives are not always drawn.
Give the value in µg/mL but do not write µg/mL after it.

compound: CN1CC2(CC(NC(=O)[C@@H]3CC[C@@H]4CN3C(=O)N4OS(=O)(=O)O)C2)C1 [Compound 6, hydrogen sulfate]
testResult: 2

Now, please, on to the next compound.
// map O=C(NC1CC2(CNC2)C1)[C@@H]1CC[C@@H]2CN1C(=O)N2OS(=O)(=O)O to recorded MIC (system: Escherichia coli BAA-2452 (NDM-1)) 1

---

assayDetails: Pharmacokinetics in SD rats (iv)
Type: in vivo, SD rat
testSettings: male, SD, rat, plasma, iv, 1 mg/kg; read-out: Cl—obs (converted)
quantityMeasured: clearance (mL/min/kg)
Give the value in mL/min/kg but do not write mL/min/kg after it.

GET /values?readout=clearance&item= O=C(NC1CCNCC1)[C@@H]1CC[C@@H]2CN1C(=O)N2OS(=O)(=O)O [MK-7655, reference compound] 16.7

---

assayDetails: Pharmacokinetics in SD rats (iv)
Format: in vivo, SD rat
testSettings: male, SD, rat, plasma, iv, 1 mg/kg
Counter-ions that a name gives are not always drawn.
quantityMeasured: half-life (min)
Give the value in min but do not write min after it.

Worked examples follow.
molecule: O=C(NC1CC2(CCNCC2)C1)[C@@H]1CC[C@@H]2CN1C(=O)N2OS(=O)(=O)O
half-life (min): 60.6
//
molecule: O=C(NC1CCNCC1)[C@@H]1CC[C@@H]2CN1C(=O)N2OS(=O)(=O)O [MK-7655, reference compound]
half-life (min): 23.4
//
molecule: O=C(NC1CC2CCC(C1)N2)[C@@H]1CC[C@@H]2CN1C(=O)N2OS(=O)(=O)O (stereo partly drawn)
half-life (min): 122
//
molecule: CN1CC2(CC(NC(=O)[C@@H]3CC[C@@H]4CN3C(=O)N4OS(=O)(=O)O)C2)C1 [Compound 6 sodium salt, sulfate]
half-life (min): 15
//
molecule: O=C(NC1CC2(CNC2)C1)[C@@H]1CC[C@@H]2CN1C(=O)N2OS(=O)(=O)O
half-life (min): 44.4

Now, please, on to the next molecule.
GET /values?readout=half-life&item= NC(=O)[C@@H]1CC[C@@H]2CN1C(=O)N2OS(=O)(=O)O [AVI sodium salt, Avibactam, reference compound] 24.6

---

assayDetails: Pharmacokinetics in SD rats (iv)
Type: in vivo, SD rat
testSettings: male, plasma; SD rat, iv 1 mg/kg; area under the curve 0→t
quantityMeasured: AUC(0-t)

GET /values?readout=AUC(0-t)&item= O=C(NC1CCNCC1)[C@@H]1CC[C@@H]2CN1C(=O)N2OS(=O)(=O)O [MK-7655, reference compound] 1020 ng·h/mL

---

Entries annotated with measured pIC50
assaySystem: UniProtKB P28585
Sequence (P28585 29-291): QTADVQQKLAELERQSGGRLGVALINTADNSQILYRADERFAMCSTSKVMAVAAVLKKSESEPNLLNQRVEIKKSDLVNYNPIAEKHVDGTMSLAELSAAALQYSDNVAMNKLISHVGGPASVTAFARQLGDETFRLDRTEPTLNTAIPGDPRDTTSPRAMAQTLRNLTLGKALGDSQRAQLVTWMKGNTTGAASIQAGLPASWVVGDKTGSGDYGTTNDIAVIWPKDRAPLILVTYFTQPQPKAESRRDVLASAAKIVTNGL
assayDetails: β-lactamase inhibition, Nitrocefin hydrolysis
testSettings: Experiment 2; enzyme 0.2 nM, Nitrocefin 0.1 mM
Counter-ions that a name gives are not always drawn.
Field pIC50 (float): negative decimal logarithm of the concentration in molar.

compound: CN1CC2(CC(NC(=O)[C@@H]3CC[C@@H]4CN3C(=O)N4OS(=O)(=O)O)C2)C1 [Compound 6, hydrogen sulfate]
pIC50: 7.39

Now, please, on to the next compound.
GET /values?readout=pIC50&item= O=C(NC1CC2(CNC2)C1)[C@@H]1CC[C@@H]2CN1C(=O)N2OS(=O)(=O)O 7.37

---

Entries annotated with measured IC50
assaySystem: KPC-2 (Klebsiella pneumoniae)
Construct: purchased
Sequence (Q9F663 25-293, looked up, species assumed): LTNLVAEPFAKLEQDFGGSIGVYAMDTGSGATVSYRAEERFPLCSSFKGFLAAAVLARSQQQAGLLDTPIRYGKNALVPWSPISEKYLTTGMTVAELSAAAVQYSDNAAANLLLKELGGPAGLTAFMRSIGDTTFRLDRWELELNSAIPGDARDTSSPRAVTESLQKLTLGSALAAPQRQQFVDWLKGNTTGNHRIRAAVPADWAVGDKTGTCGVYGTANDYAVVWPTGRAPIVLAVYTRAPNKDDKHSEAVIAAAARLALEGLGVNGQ
assayDetails: β-lactamase inhibition, Nitrocefin hydrolysis
Assay type: biochemical
testSettings: Experiment 1; Nitrocefin 0.1 mM; read-out: IC50 Type A KPC-2
Give the value in nM but do not write nM after it.

Worked examples follow.
compound: O=C(NC1CC2(CCNCC2)C1)[C@@H]1CC[C@@H]2CN1C(=O)N2OS(=O)(=O)O [Compound 1]
scaleUnit: nM
IC50: 81.7

compound: O=C(NC1C2CCC1CNC2)[C@@H]1CC[C@@H]2CN1C(=O)N2OS(=O)(=O)O (stereo partly drawn) [Compound 5]
scaleUnit: nM
IC50: 27.4

GET /values?readout=IC50&item= O=C(NC1CC2(CNC2)C1)[C@@H]1CC[C@@H]2CN1C(=O)N2OS(=O)(=O)O [Compound 2] 61.1

---

Tested on: Escherichia coli BAA-2523 (OXA-48)
assayDetails: In vitro antibacterial activity, agar dilution MIC
Type: cell-based
testSettings: BAA2523, Table 2, BAA-2523 Escherichia coli, OXA-48, read-out: MIC
Counter-ions that a name gives are not always drawn.
quantityMeasured: MIC

Worked examples follow.
compound: O=C(NC1CC2(CNC2)C1)[C@@H]1CC[C@@H]2CN1C(=O)N2OS(=O)(=O)O
MIC: 1 µg/mL

compound: CN1CC2(CC(NC(=O)[C@@H]3CC[C@@H]4CN3C(=O)N4OS(=O)(=O)O)C2)C1 [Compound 6, hydrogen sulfate]
MIC: 1 µg/mL

compound: O=C(NC1CCNCC1)[C@@H]1CC[C@@H]2CN1C(=O)N2OS(=O)(=O)O [MK-7655, reference compound]
MIC: > 16 µg/mL

GET /values?readout=MIC&item= NC(=O)[C@@H]1CC[C@@H]2CN1C(=O)N2OS(=O)(=O)O [AVI sodium salt, Avibactam, reference compound] 8 µg/mL

---

assaySystem: AmpC (UniProt P05364)
Construct: The concentration of purchased β-lactamases mother liquor was 1 mg/mL, and the mother liquor was dissolved in 50% glycerol
assayDetails: β-lactamase inhibition, Nitrocefin hydrolysis
Assay type: biochemical
testSettings: read-out: IC50 AmpC; Experiment 2; enzyme 1.6 nM, Nitrocefin 0.1 mM
Procedure: Nitrocefin, a kind of cephalosporin antibiotics, is sensitive to most of β-lactamases, and changes in color after being hydrolyzed. The hydrolysis rate of Nitrocefin was measured by real-time recording corresponding absorbance of reaction system. β-Lactamase inhibitors could inhibit hydrolysis of the enzymes to Nitrocefin, and reduce hydrolysis rate. […]
Structures can show the parent of a compound that is named as a salt.
quantityMeasured: IC50 (nM)
Give the value in nM but do not write nM after it.

compound: O=C(NC1CC2(CNC2)C1)[C@@H]1CC[C@@H]2CN1C(=O)N2OS(=O)(=O)O
scaleUnit: nM
IC50: 17.4

GET /values?readout=IC50&item= CN1CC2(CC(NC(=O)[C@@H]3CC[C@@H]4CN3C(=O)N4OS(=O)(=O)O)C2)C1 [Compound 6, hydrogen sulfate] 17.7

This collection of values is drawn from patent US10167283B2.
